- Test system: MALME-3M melanoma
- method: NCI-60 one-dose screen, 48 h (100 = growth as untreated, 0 = no growth, -100 = all killed)
- recordedConditions: 10 µM unless noted
The panel holds about 83,000 compounds, 20% with a hit somewhere; the sample as a whole holds those more often.
Item-by-item account of growth
Report the value in % with no unit label.

Known growth results, listed for orientation:
INSERT INTO measurements (molecule, measurementtarget, measured) VALUES
  ('CCOC(=O)C1=C(N)Oc2c(sc3c(CC)cccc23)C1c1ccc(F)cc1 (stereo not given)', 'MALME-3M melanoma', 42.1),
  ('O=C1/C(=C/c2ccc(F)cc2)Sc2c(Br)cccc21', 'MALME-3M melanoma', 99.9),
  ('Cc1cccc(NC2=C(Cl)C(=O)c3nc(C)ccc3C2=O)c1', 'MALME-3M melanoma', -75.3);

Suppose we examine the molecule "COc1ccc(C(=O)C(C)C)c2ccccc12" ; what growth value has been reported?
115

Another molecule: "COc1cccc(/C=C2\C=C(c3ccccc3)N(Cc3ccccc3)C2=O)c1"
98.2

Then "C=C1C(=O)O[C@H]2[C@H]1CC/C(COC(=O)CCSSCCC(=O)OC/C1=C/CC[C@@]3(C)O[C@H]3[C@H]3OC(=O)C(=C)[C@@H]3CC1)=C\CC[C@@]1(C)O[C@@H]21" ?
-27.1

Queued: "Clc1ccc2c(c1)N(CCCN1CCCC1)c1ccccc1S2"
7.63

Field entry: "COc1ccc(OC)c(/C=C/C(=O)N/N=C/c2ccccc2)c1"
59

Also, "O=C(CCN1C(=O)/C(=C/c2ccc(O)cc2)SC1=S)Nc1ccccc1" please.
95.4

Field entry: CCc1cccc2c3c(sc12)C(c1ccc(Cl)cc1)C(C#N)=C(N)O3 (stereo not given)
54.6

Repeat for the following molecule: "CCCCOc1nc2c(C)cccc2cc1-c1cc(-c2ccc(Cl)cc2)nc(-c2ccc(Cl)cc2)c1"
95.5

Also, CC(=O)OC[C@H]1OC(Sc2sc(C(=O)c3ccc(Br)cc3)c(N)c2-c2nc3ccccc3s2)[C@H](OC(C)=O)[C@@H](OC(C)=O)[C@H]1OC(C)=O (stereo not given in full) please.
98.1

Would you kindly repeat that for CC(=O)CC(c1ccccc1)c1c(C)[nH]c2ccccc12 (stereo not given) ?
100

Likewise for "COc1ccc(-c2nc3sc(-c4ccccc4)cn3n2)cc1" ?
67.6

Then "COC(=O)Nc1ccc(-c2nc(-c3cccc(OC)c3)c(-c3ccnc(Br)c3)[nH]2)cc1" ?
66.7

Now consider CC1=NN(c2ccc(S(=O)(=O)O)cc2)C(=O)C1N=Nc1ccc(-c2ccc(N=Nc3ccc(OS(=O)(=O)c4ccc(C)cc4)cc3)c(S(=O)(=O)O)c2)cc1 (stereo not given) .
108

Okay, and "O=C(Nc1ccc(F)cc1F)c1cc(F)ccc1O" ?
-25.7

Same read-out for "N#C/C(=C\c1ccc(F)cc1)n1nc2cccc(F)c2n1" ?
52.9

Consider next the molecule "O=C(/C=C/c1sc(Cl)nc1Cl)c1ccc(F)cc1" in the same way.
79.3

Another molecule to check: "O=C1/C(=C/c2ccccc2[N+](=O)[O-])Oc2ccc(O)c(O)c21"
45

Cited source for all entries: PubChem BioAssay (NCI)
